study system: OR1C1 (Homo sapiens, UniProt Q15619)
Construct: expressed in transfected cells; host or cells: HEK293T cells stably expressing human RTP1S (V227I) and RTP2 (L220R)
Sequence (Q15619 1-314): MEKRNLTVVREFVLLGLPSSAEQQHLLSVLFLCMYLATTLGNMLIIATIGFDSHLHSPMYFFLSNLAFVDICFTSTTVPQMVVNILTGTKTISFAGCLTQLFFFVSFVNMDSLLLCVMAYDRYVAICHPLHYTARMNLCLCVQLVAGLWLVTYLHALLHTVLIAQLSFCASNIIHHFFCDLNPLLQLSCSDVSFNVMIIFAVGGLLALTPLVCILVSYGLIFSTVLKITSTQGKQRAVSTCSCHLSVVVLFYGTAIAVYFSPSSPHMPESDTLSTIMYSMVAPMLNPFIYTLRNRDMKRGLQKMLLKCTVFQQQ
test protocol: cell-based
Type: cell-based
test conditions: wild-type; read-out: Potency EC50
observable: EC50 (µM)
Provide only the numeric value, understood in µM.

Incoming: Field request: EC50 | item: C=CC(C)(O)CCC=C(C)C (stereo not shown) [Linalool]
Outgoing: 379
